Value source: BigSolDB 2.1

# experimental-parameters: in water, 298.15 K
recorded-endpoint: solubility (mole fraction)

(I) O=C(O)c1cccc([N+](=O)[O-])c1C(=O)O
(II) O=C(O)c1ccc([N+](=O)[O-])cc1C(=O)O
Q: Returns: the argument ( I or II ) having the larger solubility (mole fraction). Pick one and reply with its label.
Ans: II
(II: 0.117, I: 0.00141)

###

# experimental-parameters: in water, 344.15 K
recorded-endpoint: solubility (mole fraction)

(A) O=C(O)c1ccc([N+](=O)[O-])cc1C(=O)O
(B) O=C(O)c1cccc([N+](=O)[O-])c1C(=O)O
Q: // task: argmin of solubility (mole fraction) over [ A , B ] Pick one and reply with its label.
Ans: B

###

# experimental-parameters: in water, 292.15 K
recorded-endpoint: solubility (mole fraction)

(a) O=C(O)c1cccc([N+](=O)[O-])c1C(=O)O
(b) O=C(O)c1ccc([N+](=O)[O-])cc1C(=O)O
Q: Returns: the argument ( a or b ) having the larger solubility (mole fraction). Pick one and reply with its label.
Ans: b
(b: 0.103, a: 0.000984)

###

# experimental-parameters: in water, 327.15 K
recorded-endpoint: solubility (mole fraction)

(P) O=C(O)c1ccc([N+](=O)[O-])cc1C(=O)O
(Q) O=C(O)c1cccc([N+](=O)[O-])c1C(=O)O
Q: // task: argmin of solubility (mole fraction) over [ P , Q ] Pick one and reply with its label.
Ans: Q

###

# experimental-parameters: in water, 306.15 K
recorded-endpoint: solubility (mole fraction)

(I) O=C(O)c1cccc([N+](=O)[O-])c1C(=O)O
(II) O=C(O)c1ccc([N+](=O)[O-])cc1C(=O)O
Q: Returns: the argument ( I or II ) having the larger solubility (mole fraction). Pick one and reply with its label.
Ans: II
(II: 0.137, I: 0.00189)
